Assign TGI to each entry below.
Tested on: NCI/ADR-RES ovarian
Experiment: NCI tumour cell line growth inhibition, 48 h

Recorded TGI, per entry:
| compound | TGI |
| --- | --- |
| ClCc1ccccc1CSc1ncnc2nc[nH]c12 | > 60 µM |
| COc1cc2c(c(O)c1C)C(=O)C(Cl)=CC2=O | 66.7 µM |
| CSc1c(C(=O)Nc2ccc(C)cc2)c(N)[nH]c(=O)c1C#N | > 100 µM |

Lab note: each compound below needs its TGI filled in.
1. CN=C1NC(=O)/C(=C/c2ccc3ncccc3c2)S1
2. Cn1c(-c2nonc2N)nc2cnccc21
3. CCOc1ccc(N=C/C=C(\Cl)c2ccc3ccccc3c2)cc1
4. C(=Nc1ccc(-c2nc3ccccc3s2)cc1)c1ccco1
5. COc1ccc(-n2cc(-c3ccc(OC)c(OC)c3)[nH]c2=S)cc1Cl
6. COC(c1ccc(C(C)(C)C)cc1)(c1ccc(C(C)(C)C)cc1)c1cc(C(O)(c2cc(C(OC)(c3ccc(C(C)(C)C)cc3)c3ccc(C(C)(C)C)cc3)c(C)cc2C)c2cc(C(OC)(c3ccc(C(C)(C)C)cc3)c3ccc(C(C)(C)C)cc3)c(C)cc2C)c(C)cc1C

Response given:
["> 25 µM", "> 25 µM", "31.8 µM", "> 100 µM", "> 100 µM", "> 100 µM"]

// batch mode: one TGI value per listed entry
1. CCOc1ccc2nc(NC(=O)/C(CC(=O)CC(C3=C(O)c4ccccc4CC3=O)c3ccccc3)=N\O)sc2c1 (stereo not drawn)
2. c1ccc2c(c1)CCCN1CCc3ccccc3C21 (stereo not drawn)
3. O=[N+]([O-])C(=C(Sc1ccccc1)Sc1ccccc1)C(Cl)=C(Cl)Cl

Response given:
1: > 100 µM; 2: > 100 µM; 3: 1.9 µM

Dear colleague, could you send me TGI for each of the items below? Thanks.
1. NNC(=O)c1cnn(-c2ccnc3c(C(F)(F)F)cccc23)c1N
2. COC(=O)CCCC(=O)C(=Nc1c(Cl)cccc1Cl)NNc1ccc(Cl)cc1
3. Cc1cc(C)c2c(n1)S(=O)(=O)N(CCCN1CCN(c3cccc(C(F)(F)F)c3)CC1)/C(=C(\O)c1ccc(Cl)cc1)C2=O
4. CCN(CC)CCCn1c(=O)c2cccnc2n2c3c(=O)n(C)c(=O)n(C)c3nc12
5. O=C(O)Cc1c[nH]c2ccc(F)cc12

Response given:
> 100 µM
> 100 µM
16.4 µM
> 100 µM
> 100 µM

Please state TGI for every compound in the list that follows.
1. O=C(O)c1ccc(NS(=O)(=O)Cc2ccccc2)cc1
2. O=C1c2ccccc2C(=O)c2c1ccc1[nH]c(CCl)nc21

Response given:
> 100 µM
10.4 µM

// each compound listed below needs its TGI
1. CC(C)CCNC(=O)c1ccc(CNC(=O)/C=C/c2ccc(OCc3ccccc3)cc2)cc1
2. Cc1nc2cc(C(F)(F)F)ccc2[nH]c1=O
3. O=c1nc2c(c(-c3cccc(Cl)c3)[nH]1)COC/C2=C\c1cccc(Cl)c1

Response given:
1: > 100 µM; 2: > 100 µM; 3: > 100 µM

Challenge: Consider the compound Cc1ccc(C(=O)Nc2ccc(CP(=O)(O)O)cc2)cc1NC(=O)c1cccc(NC(=O)Nc2cccc(C(=O)Nc3cc(C(=O)Nc4ccc(CP(=O)(O)O)cc4)ccc3C)c2)c1 and give its measured TGI.
Response given: > 100 µM

---

System: CCRF-CEM leukemia
Assay: NCI tumour cell line growth inhibition, 48 h; in the data active means GI50 below about 0.43 µM; inactive means the rest
Respond only with the outcome that fits, drawn from yes = active, no = inactive

Example entries begin here.
| compound | class-label |
| --- | --- |
| OC(c1cccc(C(F)(F)F)c1)c1cnccc1NC1CCCCCC1 (configuration not stated) | no |
| Cn1cc(C2=C(c3ccc(OC[C@@H](O)CO)cc3)C(=O)NC2=O)c2ccccc21 | no |
| S=C1NCCN1C1=Nc2ccccc2CO1 | no |
| ClCc1ccccc1CSc1ncnc2nc[nH]c12 | no |
| O=C1c2ccccc2-c2c1c1cc3c(cc1c(=O)n2CCCCl)OCO3 | no |
| N#Cc1c(O)c2c(c(O)c1C#N)C(=O)c1ccccc1C2=O | no |
| O=C(O)CCCc1ccc(N(CCCl)CCCl)cc1 | no |
| COc1ccc(-n2cc(-c3ccc(OC)c(OC)c3)[nH]c2=S)cc1Cl | no |

Now for a further compound.
Challenge: Check the results log: what was the call for COC(=O)c1c2c(c(C)[n+]([O-])c1C)C(=O)C=CC2=O ?
Response given: yes

---

System: IGROV1 ovarian
Test: NCI tumour cell line growth inhibition, 48 h
Answer each item with its documented TGI.
Numbers only, in µM.

| chemical-smiles | reported-property | measurement |
| --- | --- | --- |
| Cc1cc(C)nc(NS(=O)(=O)c2ccc(NC(=O)c3cccc4c(=O)c5ccccc5[nH]c34)cc2)n1 | TGI | 68.1 |
| O=C(Cc1ccc(/C=C/C(=O)c2ncc[nH]2)cc1)Nc1ccc(Cl)cc1 | TGI | 15.4 |

We next turn to a different compound, shown below.
Challenge: Find the measured TGI: item CC1(C)N=C(N)N=C(N)N1c1ccc(CCCCc2ccc(S(=O)(=O)F)cc2Cl)c(Cl)c1 , target or system IGROV1 ovarian.
Response given: 106

---

Assignment: determine reported TGI for the given compounds.
Tested on: UACC-62 melanoma
Assay: NCI tumour cell line growth inhibition, 48 h

The examples below pair each entry with its known result.
| chemical-smiles | study-system | TGI |
| --- | --- | --- |
| CCOC(=O)c1c(SCCN2CCCC2)n(-c2ccccc2)c(=S)n(-c2ccccc2)c1=O | UACC-62 melanoma | 7.29 µM |
| CN(C)c1ccc(/C(Br)=C2\OC(=O)c3ccccc32)cc1 | UACC-62 melanoma | > 100 µM |
| Cc1cc(C)c2c(n1)S(=O)(=O)N(CCCN1CCN(c3cccc(C(F)(F)F)c3)CC1)/C(=C(\O)c1ccc(Cl)cc1)C2=O | UACC-62 melanoma | 18.3 µM |

Challenge: Form entry - test system: UACC-62 melanoma; read-out: TGI; compound: C[C@@H]1Cc2c([nH]c3ccccc23)[C@@H](c2c(F)cc(/C=C/C(=O)O)cc2F)N1CC(C)(C)F
Response given: 17.3 µM

---

Test system: UACC-257 melanoma
Assay: NCI tumour cell line growth inhibition, 48 h
reported-property: TGI

Below are 3 compounds. Give each one its TGI.
1. CC(=O)/C(=C/n1c(=S)sc2ccccc21)C(=O)Nc1ccccc1C
2. CC(C)/C(Cl)=N\OC(=O)NNc1ccccc1
3. Cc1nc2nnc(C)n2c2c1C(=O)Nc1ccccc1N2

Response given:
> 100 µM
> 100 µM
> 100 µM

For every record below, what is its TGI?
1. O=C1C(C=NCCc2c[nH]c3ccccc23)C(C(F)(F)F)=NN1c1nc2ccccc2s1 (stereo not given)
2. O=C(O)/C=C/C(=O)Nc1ncn[nH]1
3. N#CSCc1cccc(Nc2cc(=O)[nH]c(=O)[nH]2)c1
4. COc1cc2c(c(OC)c1OC)-c1ccc(NCc3ccccc3)c(=O)cc1[C@@H](NC(C)=O)CC2

Response given:
["41.9 µM", "> 100 µM", "> 100 µM", "37.5 µM"]

---

Tested on: SF-539 CNS
Experiment: NCI tumour cell line growth inhibition, 48 h
reported-property: TGI (µM)
One number for each entry, in µM.

Example entries and their recorded answers appear below.
| molecule | reported-property | unit-abbrev | measurement |
| --- | --- | --- | --- |
| CCOC(=O)c1cc(-c2ccc([N+](=O)[O-])cc2)n(-c2ccc(C(=O)O)c(O)c2)c1C | TGI | µM | 22.5 |
| O=C1Oc2cc3c(c4cccc1c24)OCN(c1ccc(Cl)cc1)C3 | TGI | µM | 23.9 |
| Cc1cc(C)nc(NS(=O)(=O)c2ccc(NC(=O)c3cccc4c(=O)c5ccccc5[nH]c34)cc2)n1 | TGI | µM | 35.4 |
| C#CC(C)(C)Oc1cc(O)c2c(=O)c3ccccc3n(C)c2c1 | TGI | µM | 58.1 |
| O=C1c2ccccc2C(=O)c2c1ccc1[nH]c(CCl)nc21 | TGI | µM | 11.6 |

Report TGI for each item below.
1. OC(c1cccc(C(F)(F)F)c1)c1cnccc1NC1CCCCCC1 (stereo not drawn)
2. Cc1c(C(=O)/C=C/c2cccc3ccccc23)[n+](=O)c2ccccc2n1[O-]
3. CN(C)c1ccc2c(c1)oc(=O)c1ccccc12
4. CCN1CCN(c2nc(NCCNc3ccnc4cc(Cl)ccc34)c3ccccc3n2)CC1
5. O=C1C(Br)=Cc2c(Cl)sc(Cl)c21
6. N#Cc1c(O)c2c(c(O)c1C#N)C(=O)c1ccccc1C2=O

Response given:
1. 3.15
2. 23.8
3. 35.5
4. 3.36
5. 15.1
6. 5.53
